The values you see were collected from patent US5270302A.

# Target under test: Type-A CCK receptor (Cavia porcellus)
# Construct: Cortical and pancreatic membranes were prepared as described; from tissue; host or cells: guinea pig pancreas membranes
# Sequence (Q63931 1-430): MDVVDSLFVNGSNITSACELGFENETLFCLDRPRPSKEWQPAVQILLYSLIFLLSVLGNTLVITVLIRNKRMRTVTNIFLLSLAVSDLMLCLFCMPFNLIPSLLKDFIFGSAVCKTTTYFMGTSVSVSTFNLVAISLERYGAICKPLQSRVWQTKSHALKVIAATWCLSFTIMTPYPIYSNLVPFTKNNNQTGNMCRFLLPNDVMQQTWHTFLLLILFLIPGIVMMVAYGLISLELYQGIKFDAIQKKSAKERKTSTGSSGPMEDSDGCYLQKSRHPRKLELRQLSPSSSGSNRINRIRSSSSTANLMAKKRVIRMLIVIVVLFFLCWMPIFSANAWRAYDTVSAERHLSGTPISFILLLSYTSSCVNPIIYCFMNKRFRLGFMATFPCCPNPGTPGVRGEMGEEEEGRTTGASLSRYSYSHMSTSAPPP
# Assay remarks: Radioligand binding of [125I]BH-CCK-8 in guinea pig pancreatic membrane preparations
# Condition context: guinea pig pancreatic membranes, 37° C., 150 min; read-out: IC50 (nM) 125I-BH-CCK-8 Type-A receptor
Where a SMILES comes first, the peptide text is derived from it. [ ]: non-standard residue; d: D form. The star is where a group is joined. NMeF = CN[C@@H](Cc1ccccc1)C(=O)O; X9 = CN(C)c1ccc(C=CC(=O)*)cc1; X1 = O=C(C=Cc1ccc(O)cc1)*; X17 = O=C(C=Cc1ccccc1O)*; Boc = CC(C)(C)OC(=O)*
IC50 strictly less than 20 nM = label 1. Otherwise label 0.

>>> assigned_class("CN(C)c1ccc(C=CC(=O)NCCCC[C@H](NC(=O)[C@H](Cc2c[nH]c3ccccc23)NC(=O)OC(C)(C)C)C(=O)N[C@@H](CC(=O)O)C(=O)N[C@@H](Cc2ccccc2)C(N)=O)cc1 [Example 13] (Boc-WK(X9)DF-NH2)")
"label 0"
>>> assigned_class("CN(C(=O)[C@H](CC(=O)O)NC(=O)[C@H](CCCCNC(=O)C=Cc1ccc(O)cc1)NC(=O)[C@H](Cc1c[nH]c2ccccc12)NC(=O)OC(C)(C)C)[C@@H](Cc1ccccc1)C(N)=O [Example 17] (Boc-WK(X1)D[NMeF]-NH2)")
"label 1"
>>> assigned_class("Cc1ccccc1NC(=O)NCCCC[C@H](NC(=O)C(F)Cc1c[nH]c2ccccc12)C(=O)N(C)[C@@H](CC(=O)O)C(=O)N[C@@H](Cc1ccccc1)C(N)=O (some centres unmarked)")
"label 1"
>>> assigned_class("CC(C)(C)OC(=O)N[C@@H](Cc1c[nH]c2ccccc12)C(=O)N[C@@H](CCCCNC(=O)C=Cc1ccccc1O)C(=O)N[C@@H](CC(=O)O)C(=O)N[C@@H](Cc1ccccc1)C(N)=O [Example 22] (Boc-WK(X17)DF-NH2)")
"label 0"
>>> assigned_class("Cc1ccccc1NC(=O)NCCCC[C@H](NC(=O)C(Cc1c[nH]c2ccccc12)C(N)=O)C(=O)N[C@@H](CC(=O)O)C(=O)N(C)[C@@H](Cc1ccccc1)C(N)=O (some centres unmarked)")
"label 1"

----------
# Target under test: Type-B CCK receptor (Cavia porcellus, UniProt H0VZC5)
# Construct: Cortical and pancreatic membranes were prepared as described; from tissue; host or cells: guinea pig cerebral cortex membranes
# Sequence (H0VZC5 1-426): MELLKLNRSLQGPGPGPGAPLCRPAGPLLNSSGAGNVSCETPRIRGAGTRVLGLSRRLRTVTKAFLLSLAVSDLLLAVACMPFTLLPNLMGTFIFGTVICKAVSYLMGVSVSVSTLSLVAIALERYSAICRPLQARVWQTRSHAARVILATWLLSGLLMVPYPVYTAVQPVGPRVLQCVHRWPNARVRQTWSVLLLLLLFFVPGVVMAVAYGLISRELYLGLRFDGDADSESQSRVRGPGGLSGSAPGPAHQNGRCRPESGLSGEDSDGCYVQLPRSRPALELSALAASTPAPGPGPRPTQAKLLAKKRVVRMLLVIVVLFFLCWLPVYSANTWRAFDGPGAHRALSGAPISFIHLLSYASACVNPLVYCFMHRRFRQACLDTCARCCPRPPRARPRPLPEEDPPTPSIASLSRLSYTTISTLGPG
# Assay remarks: Radioligand binding of [125I]BH-CCK-8 in guinea pig cerebral cortical membrane preparations
pIC50: −log10 of the molar value. *1 amine or outer side, *2 acyl side, *3 side chain or, on linkers, in order; H or OH if unused. Where a SMILES comes first, the peptide text is derived from it. Side-chain parts run from the residue outwards. [ ]: non-standard residue; d: D form. The star is where a group is joined. Propanoyl(3,3-Ph2) = O=C(CC(c1ccccc1)c1ccccc1)*; Adoc = O=C(OC12CC3CC(CC(C3)C1)C2)*; Isopropoxycarbonyl = CC(C)OC(=O)*; NMeF = CN[C@@H](Cc1ccccc1)C(=O)O; X4 = O=C(OC1C2CC3CC(C2)CC1C3)*; NH(2-Me-phenyl) = Cc1ccccc1N*; X5 = O=C(CCc1ccc(O)c(I)c1)*; 2Abz = Nc1ccccc1C(=O)O; Cbz = O=C(OCc1ccccc1)*; Boc = CC(C)(C)OC(=O)*; CO = O=C([*:1])[*:2]; X6 = O=C(Oc1ccccc1)*; X2 = C1CN(CCO*)CCO1; NHtBu = CC(C)(C)N*; Moc = COC(=O)*
Listed compounds paired with reported pIC50
Property measured: pIC50

>>> observed_value("Cc1ccccc1NC(=O)NCCCC[C@H](NC(=O)[C@H](Cc1c[nH]c2ccccc12)NC(=O)OCc1ccccc1)C(=O)N[C@@H](CC(=O)O)C(=O)N(C)[C@@H](Cc1ccccc1)C(N)=O [Example 76] (Cbz-WK([CO-NH(2-Me-phenyl)])D[NMeF]-NH2)")
5.19
>>> observed_value("Cc1ccccc1NC(=O)NCCCC[C@H](NC(=O)[C@H](Cc1c[nH]c2ccccc12)NC(=O)OC(C)(C)C)C(=O)N[C@@H](CC(=O)OCCN1CCOCC1)C(=O)N(C)[C@@H](Cc1ccccc1)C(N)=O [Example 120] (Boc-WK([CO-NH(2-Me-phenyl)])D(X2)[NMeF]-NH2)")
4.89
>>> observed_value("Cc1ccccc1NC(=O)NCCCC[C@H](NC(=O)[C@H](Cc1c[nH]c2ccccc12)NC(=O)NC(C)(C)C)C(=O)N[C@@H](CC(=O)O)C(=O)N(C)[C@@H](Cc1ccccc1)C(N)=O [Example 82] ({NHtBu-CO}-WK([CO-NH(2-Me-phenyl)])D[NMeF]-NH2)")
5.36
>>> observed_value("Cc1ccccc1NC(=O)NCCCC[C@H](NC(=O)[C@H](Cc1c[nH]c2ccccc12)NC(=O)OC(C)C)C(=O)N[C@@H](CC(=O)O)C(=O)N(C)[C@@H](Cc1ccccc1)C(N)=O [Example 78] (Isopropoxycarbonyl-WK([CO-NH(2-Me-phenyl)])D[NMeF]-NH2)")
5.30
>>> observed_value("Cc1ccccc1NC(=O)NCCCC[C@H](NC(=O)[C@H](Cc1c[nH]c2ccccc12)NC(=O)OC12CC3CC(CC(C3)C1)C2)C(=O)N[C@@H](CC(=O)O)C(=O)N(C)[C@@H](Cc1ccccc1)C(N)=O [Example 75] (Adoc-WK([CO-NH(2-Me-phenyl)])D[NMeF]-NH2)")
5.00
>>> observed_value("Cc1ccccc1NC(=O)NCCCC[C@H](NC(=O)[C@H](Cc1c[nH]c2ccccc12)NC(=O)Oc1ccccc1)C(=O)N[C@@H](CC(=O)O)C(=O)N(C)[C@@H](Cc1ccccc1)C(N)=O [Example 79] (X6-WK([CO-NH(2-Me-phenyl)])D[NMeF]-NH2)")
5.14
>>> observed_value("Cc1ccccc1NC(=O)NCCCC[C@H](NC(=O)[C@H](Cc1c[nH]c2ccccc12)NC(=O)CCc1ccc(O)c(I)c1)C(=O)N[C@@H](CC(=O)O)C(=O)N(C)[C@@H](Cc1ccccc1)C(N)=O [Example 93] (X5-WK([CO-NH(2-Me-phenyl)])D[NMeF]-NH2)")
5.38
>>> observed_value("Cc1ccccc1NC(=O)NCCCC[C@H](NC(=O)[C@H](Cc1c[nH]c2ccccc12)NC(=O)CC(c1ccccc1)c1ccccc1)C(=O)N[C@@H](CC(=O)O)C(=O)N(C)[C@@H](Cc1ccccc1)C(N)=O [Example 92] ({Propanoyl(3,3-Ph2)}-WK([CO-NH(2-Me-phenyl)])D[NMeF]-NH2)")
5.30
>>> observed_value("COC(=O)c1ccccc1NC(=O)NCCCC[C@H](NC(=O)[C@H](Cc1c[nH]c2ccccc12)NC(=O)OC(C)(C)C)C(=O)N[C@@H](CC(=O)O)C(=O)N[C@@H](Cc1ccccc1)C(N)=O [Example 45] (Boc-WK([CO-2Abz-OMe])DF-NH2)")
5.52
>>> observed_value("Cc1ccccc1NC(=O)NCCCC[C@H](NC(=O)[C@H](Cc1c[nH]c2ccccc12)NC(=O)OC1C2CC3CC(C2)CC1C3)C(=O)N[C@@H](CC(=O)O)C(=O)N(C)[C@@H](Cc1ccccc1)C(N)=O (stereo partly drawn) [Example 74] (X4-WK([CO-NH(2-Me-phenyl)])D[NMeF]-NH2)")
5.10
>>> observed_value("COC(=O)N[C@@H](Cc1c[nH]c2ccccc12)C(=O)N[C@@H](CCCCNC(=O)Nc1ccccc1C)C(=O)N[C@@H](CC(=O)O)C(=O)N(C)[C@@H](Cc1ccccc1)C(N)=O [Example 80] (Moc-WK([CO-NH(2-Me-phenyl)])D[NMeF]-NH2)")
5.28

----------
# Target under test: Type-A CCK receptor (Cavia porcellus, UniProt Q63931)
# Construct: Cortical and pancreatic membranes were prepared as described; from tissue; host or cells: guinea pig pancreas membranes
# Sequence (Q63931 1-430): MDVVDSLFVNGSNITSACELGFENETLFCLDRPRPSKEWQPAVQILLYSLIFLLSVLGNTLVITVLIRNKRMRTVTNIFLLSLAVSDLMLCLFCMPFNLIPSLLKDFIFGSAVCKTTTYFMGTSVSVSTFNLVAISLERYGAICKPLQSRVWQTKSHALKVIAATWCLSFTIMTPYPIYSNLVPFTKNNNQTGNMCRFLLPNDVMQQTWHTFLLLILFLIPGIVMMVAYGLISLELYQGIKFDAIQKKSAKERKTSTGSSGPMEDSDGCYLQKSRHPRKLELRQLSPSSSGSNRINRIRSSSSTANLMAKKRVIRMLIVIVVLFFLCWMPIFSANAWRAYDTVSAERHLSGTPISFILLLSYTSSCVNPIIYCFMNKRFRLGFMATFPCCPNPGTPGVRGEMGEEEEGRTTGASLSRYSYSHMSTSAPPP
# Assay remarks: Radioligand binding of [125I]BH-CCK-8 in guinea pig pancreatic membrane preparations
pIC50: −log10 of the molar value. *1 amine or outer side, *2 acyl side, *3 side chain or, on linkers, in order; H or OH if unused. Where a SMILES comes first, the peptide text is derived from it. Side-chain parts run from the residue outwards. [ ]: non-standard residue; d: D form. The star is where a group is joined. NMeF = CN[C@@H](Cc1ccccc1)C(=O)O; NH(2-Me-phenyl) = Cc1ccccc1N*; X5 = O=C(CCc1ccc(O)c(I)c1)*; CO = O=C([*:1])[*:2]; NHtBu = CC(C)(C)N*
Property measured: pIC50

>>> observed_value("Cc1ccccc1NC(=O)NCCCC[C@H](NC(=O)[C@H](Cc1c[nH]c2ccccc12)NC(=O)CCc1ccc(O)c(I)c1)C(=O)N[C@@H](CC(=O)O)C(=O)N(C)[C@@H](Cc1ccccc1)C(N)=O [Example 93] (X5-WK([CO-NH(2-Me-phenyl)])D[NMeF]-NH2)")
8.34
>>> observed_value("Cc1ccccc1NC(=O)NCCCC[C@H](NC(=O)[C@H](Cc1c[nH]c2ccccc12)NC(=O)NC(C)(C)C)C(=O)N[C@@H](CC(=O)O)C(=O)N(C)[C@@H](Cc1ccccc1)C(N)=O [Example 82] ({NHtBu-CO}-WK([CO-NH(2-Me-phenyl)])D[NMeF]-NH2)")
8.31
